Target: α-glucosidase from Saccharomyces cerevisiae (Saccharomyces cerevisiae)
Sequence (P53341 whole entry): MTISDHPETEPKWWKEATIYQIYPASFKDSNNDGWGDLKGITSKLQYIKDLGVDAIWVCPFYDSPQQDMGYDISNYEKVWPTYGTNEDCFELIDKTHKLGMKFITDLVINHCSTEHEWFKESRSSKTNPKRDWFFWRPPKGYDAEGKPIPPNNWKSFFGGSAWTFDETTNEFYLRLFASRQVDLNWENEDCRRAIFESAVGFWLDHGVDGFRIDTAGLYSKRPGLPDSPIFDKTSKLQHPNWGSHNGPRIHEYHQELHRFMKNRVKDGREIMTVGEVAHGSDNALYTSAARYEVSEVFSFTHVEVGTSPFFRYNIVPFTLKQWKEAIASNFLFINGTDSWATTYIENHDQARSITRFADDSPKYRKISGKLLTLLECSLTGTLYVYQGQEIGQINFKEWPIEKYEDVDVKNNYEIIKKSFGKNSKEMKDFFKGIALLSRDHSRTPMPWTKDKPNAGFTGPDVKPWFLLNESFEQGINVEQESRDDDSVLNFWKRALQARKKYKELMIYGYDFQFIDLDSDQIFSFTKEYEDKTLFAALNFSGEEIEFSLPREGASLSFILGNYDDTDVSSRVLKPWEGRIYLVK
Run description: biochemical
Listing of entries alongside the reported IC50.
For clarity, give the value followed by its unit.

1. CC(=O)c1cc(Br)cc([N+](=O)[O-])c1OS(=O)(=O)c1ccccc1F [Compound 2m]; 7.9 µM
2. CC(=O)c1cc(Br)cc([N+](=O)[O-])c1OS(=O)(=O)c1ccc(OC(F)(F)F)cc1 [Compound 2q]; 8.7 µM
3. CC(=O)c1cc(F)cc([N+](=O)[O-])c1OS(=O)(=O)c1ccc(OC(F)(F)F)cc1 [Compound 2e]; 3.1 µM

Please turn your attention to the following entry.
Would you kindly share the measured IC50 for CC(=O)c1cc(Br)cc([N+](=O)[O-])c1OS(=O)(=O)c1cccc(F)c1 [Compound 2n] ?
18.2 µM

* * *

Listing of entries alongside the reported IC50.
Test system: MCF-7 cell line
Run description: CellTiter-Blue cell viability assay, MCF-7
Settings: Homo sapiens, MCF7, 24 h, read-out: IC50 (µM ± SD) MCF-7
Answer with a number only, understood to be in µM.

Here is how some compounds turned out for IC50.
1. COc1cccc2c1C(=O)c1c(O)c3c(c(O)c1C2=O)C[C@@](O)(C(=O)CO)C[C@@H]3O[C@H]1C[C@H](N)[C@H](O)[C@H](C)O1 [Doxorubicin, reference compound]; 0.59
2. CC(=O)c1cc(Cl)cc([N+](=O)[O-])c1OS(=O)(=O)c1ccccc1F; 9.92
3. CC(=O)c1cc(Cl)cc([N+](=O)[O-])c1OS(=O)(=O)c1ccc(C(F)(F)F)cc1; 2.58
4. COC(=O)c1ccc2c(c1)NC(=O)/C2=C(\Nc1ccc(N(C)C(=O)CN2CCN(C)CC2)cc1)c1ccccc1 [Nintedanib, reference compound]; 0.4
5. CC(=O)c1cc(F)cc([N+](=O)[O-])c1OS(=O)(=O)c1ccccc1F; 4.96
6. CC(=O)c1cc(Cl)cc([N+](=O)[O-])c1OS(=O)(=O)c1ccc(OC(F)(F)F)cc1; 34.5

Would you kindly share the measured IC50 for COc1ccc(S(=O)(=O)Oc2c(C(C)=O)cc(C)cc2[N+](=O)[O-])cc1 ?
11

Queued: CC(=O)c1cc(C)cc([N+](=O)[O-])c1OS(=O)(=O)c1ccc(C(F)(F)F)cc1
8.58

Queued: CC(=O)c1cc(F)cc([N+](=O)[O-])c1OS(=O)(=O)c1ccc(OC(F)(F)F)cc1
8.18

* * *

Here's a batch of compounds along with measured IC50 for α-glucosidase from Saccharomyces cerevisiae (Saccharomyces cerevisiae).
For clarity, give the value followed by its unit.

1. CC(=O)c1cc(Cl)cc([N+](=O)[O-])c1OS(=O)(=O)c1ccc(F)cc1; 10.6 µM
2. CC(=O)c1cc(C)cc([N+](=O)[O-])c1OS(=O)(=O)c1ccc(OC(F)(F)F)cc1; 6 µM
3. CC(=O)c1cc(C)cc([N+](=O)[O-])c1O; 8.2 µM
4. CC(=O)c1cc(F)cc([N+](=O)[O-])c1OS(=O)(=O)c1ccc(F)cc1; 27.4 µM

Would you kindly share the measured IC50 for CC(=O)c1cc(Cl)cc([N+](=O)[O-])c1O ?
27.2 µM

Queued: CC(=O)c1cc(Cl)cc([N+](=O)[O-])c1OS(=O)(=O)c1cccc(F)c1
12.4 µM
